# System: Talaromyces marneffei
# experiment.notes: Antifungal activity against Penicillium marneffei at 10 ug/ml after 3 to 4 days by serial dilution method
# Assay type: functional
# test.context: read-out: IZ
Parameter zone of inhibition at 10 µg/mL: see the listing below.

smiles.notation | study.system | zone of inhibition at 10 µg/mL
CSc1ccc(Cc2nn(CN3CCOCC3)c(=S)n2/N=C/c2ccc(F)cc2)cc1 | Talaromyces marneffei | 12 mm
COc1ccc(/C=N/n2c(Cc3ccc(SC)cc3)nn(CN3CCN(C)CC3)c2=S)cc1 | Talaromyces marneffei | 10 mm
Cc1cc(C2CCCCC2)n(O)c(=O)c1.NCCO | Talaromyces marneffei | 20 mm
CSc1ccc(Cc2nn(CN3CCOCC3)c(=S)n2/N=C/c2ccc(C)cc2)cc1 | Talaromyces marneffei | 10 mm
COc1ccc(/C=N/n2c(Cc3ccc(SC)cc3)nn(CN3CCOCC3)c2=S)cc1 | Talaromyces marneffei | 12 mm

###

Parameter zone of inhibition at 10 µg/mL: see the listing below.
# Test system: Klebsiella pneumoniae
# experiment.notes: Antibacterial activity against Klebsiella pneumoniae after 24 hrs at 10 ug/ml by disc diffusion method
# Type: functional
# test.context: read-out: IZ

smiles.notation | unit.abbreviation | zone of inhibition at 10 µg/mL
CSc1ccc(/C=N/n2c(Cc3ccc(SC)cc3)nn(CN3CCOCC3)c2=S)cc1 | mm | 12
CSc1ccc(Cc2nn(CN3CCOCC3)c(=S)n2/N=C/c2ccc(Cl)cc2Cl)cc1 | mm | 18
CSc1ccc(Cc2nn(CN3CCN(C)CC3)c(=S)n2/N=C/c2ccc(F)cc2)cc1 | mm | 10
COc1ccc(/C=N/n2c(Cc3ccc(SC)cc3)nn(CN3CCN(C)CC3)c2=S)cc1 | mm | 10
CSc1ccc(Cc2nn(CN3CCN(C)CC3)c(=S)n2/N=C/c2ccc3c(c2)OCO3)cc1 | mm | 10
CSc1ccc(Cc2nn(CN3CCOCC3)c(=S)n2/N=C/c2ccc(C)cc2)cc1 | mm | 10
CSc1ccc(Cc2nn(CN3CCN(C)CC3)c(=S)n2/N=C/c2ccc(Cl)cc2)cc1 | mm | 20
CSc1ccc(Cc2nn(CN3CCN(C)CC3)c(=S)n2/N=C/c2ccc(C)cc2)cc1 | mm | 10
COc1ccc(/C=N/n2c(Cc3ccc(SC)cc3)nn(CN3CCOCC3)c2=S)cc1 | mm | 10
CSc1ccc(Cc2nn(CN3CCOCC3)c(=S)n2/N=C/c2ccc(F)cc2)cc1 | mm | 12
CSc1ccc(/C=N/n2c(Cc3ccc(SC)cc3)nn(CN3CCN(C)CC3)c2=S)cc1 | mm | 10
O=C(O)c1cn(C2CC2)c2cc(N3CCNCC3)c(F)cc2c1=O | mm | 20
CSc1ccc(Cc2nn(CN3CCN(C)CC3)c(=S)n2/N=C/c2ccc(Cl)cc2Cl)cc1 | mm | 20
CSc1ccc(Cc2nn(CN3CCOCC3)c(=S)n2/N=C/c2ccc3c(c2)OCO3)cc1 | mm | 10
CSc1ccc(Cc2nn(CN3CCOCC3)c(=S)n2/N=C/c2ccc(Cl)cc2)cc1 | mm | 10

###

Parameter zone of inhibition at 10 µg/mL: see the listing below.
# System: Aspergillus flavus
# experiment.notes: Antifungal activity against Aspergillus flavus NICM524 at 10 ug/ml after 3 to 4 days by serial dilution method
# Assay type: functional
# test.context: read-out: IZ

compound | unit.abbreviation | zone of inhibition at 10 µg/mL
CSc1ccc(Cc2nn(CN3CCOCC3)c(=S)n2/N=C/c2ccc(Cl)cc2)cc1 | mm | 10
COc1ccc(/C=N/n2c(Cc3ccc(SC)cc3)nn(CN3CCN(C)CC3)c2=S)cc1 | mm | 12
Cc1cc(C2CCCCC2)n(O)c(=O)c1.NCCO [CICLOPIROX OLAMINE] | mm | 18
CSc1ccc(Cc2nn(CN3CCOCC3)c(=S)n2/N=C/c2ccc(Cl)cc2Cl)cc1 | mm | 10
CSc1ccc(Cc2nn(CN3CCN(C)CC3)c(=S)n2/N=C/c2ccc(C)cc2)cc1 | mm | 12
CSc1ccc(/C=N/n2c(Cc3ccc(SC)cc3)nn(CN3CCOCC3)c2=S)cc1 | mm | 10
CSc1ccc(Cc2nn(CN3CCOCC3)c(=S)n2/N=C/c2ccc3c(c2)OCO3)cc1 | mm | 10
COc1ccc(/C=N/n2c(Cc3ccc(SC)cc3)nn(CN3CCOCC3)c2=S)cc1 | mm | 12
CSc1ccc(Cc2nn(CN3CCN(C)CC3)c(=S)n2/N=C/c2ccc(Cl)cc2)cc1 | mm | 18
CSc1ccc(Cc2nn(CN3CCN(C)CC3)c(=S)n2/N=C/c2ccc(F)cc2)cc1 | mm | 10
CSc1ccc(/C=N/n2c(Cc3ccc(SC)cc3)nn(CN3CCN(C)CC3)c2=S)cc1 | mm | 12
CSc1ccc(Cc2nn(CN3CCN(C)CC3)c(=S)n2/N=C/c2ccc3c(c2)OCO3)cc1 | mm | 10
CSc1ccc(Cc2nn(CN3CCN(C)CC3)c(=S)n2/N=C/c2ccc(Cl)cc2Cl)cc1 | mm | 18
CSc1ccc(Cc2nn(CN3CCOCC3)c(=S)n2/N=C/c2ccc(F)cc2)cc1 | mm | 10
CSc1ccc(Cc2nn(CN3CCOCC3)c(=S)n2/N=C/c2ccc(C)cc2)cc1 | mm | 12
O=C(O)c1cn(C2CC2)c2cc(N3CCNCC3)c(F)cc2c1=O [CIPROFLOXACIN] | mm | 18
